In this section, each of the binders is paired with its reported Baf3-hPRLR proliferation IC50.
Target: T1, human PRLR on cells (human, UniProt P16471 25-622)
T1 sequence: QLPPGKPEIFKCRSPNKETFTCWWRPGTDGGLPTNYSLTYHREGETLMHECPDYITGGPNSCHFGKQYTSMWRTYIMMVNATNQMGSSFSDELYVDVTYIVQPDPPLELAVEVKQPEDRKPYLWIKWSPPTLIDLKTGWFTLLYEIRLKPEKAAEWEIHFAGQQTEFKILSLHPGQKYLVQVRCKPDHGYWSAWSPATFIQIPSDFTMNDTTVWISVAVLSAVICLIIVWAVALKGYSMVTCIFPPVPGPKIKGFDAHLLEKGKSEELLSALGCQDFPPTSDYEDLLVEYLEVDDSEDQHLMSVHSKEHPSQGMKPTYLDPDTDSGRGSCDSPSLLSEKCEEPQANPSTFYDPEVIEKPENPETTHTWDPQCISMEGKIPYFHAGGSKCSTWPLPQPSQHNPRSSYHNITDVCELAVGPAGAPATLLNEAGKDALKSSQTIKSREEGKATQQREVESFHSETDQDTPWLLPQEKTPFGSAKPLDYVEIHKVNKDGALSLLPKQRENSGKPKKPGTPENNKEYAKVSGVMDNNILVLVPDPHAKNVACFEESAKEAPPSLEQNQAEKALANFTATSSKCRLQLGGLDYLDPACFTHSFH
Experiment: cell-based or functional assay
API: value field is a number in µg/mL; no unit string.

BINDER	Baf3-hPRLR proliferation IC50 (µg/mL)
Ab9 (antibody, V domains shown, murine monoclonal, isotype G2b; also called murine Ab9) VH: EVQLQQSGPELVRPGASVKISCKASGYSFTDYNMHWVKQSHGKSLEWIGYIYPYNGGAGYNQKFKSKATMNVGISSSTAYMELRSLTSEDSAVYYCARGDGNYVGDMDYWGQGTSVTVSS VL: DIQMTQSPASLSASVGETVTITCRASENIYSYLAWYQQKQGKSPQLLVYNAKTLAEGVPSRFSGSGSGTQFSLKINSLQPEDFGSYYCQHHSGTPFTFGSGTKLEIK	0.51

Reported Baf3-hPRLR proliferation IC50 for Ab30 (antibody, human IgG1, kappa, V domains shown, humanized from Ab5; G1; also called Ab2 HC.1a and Ab2 LC.1a) VH: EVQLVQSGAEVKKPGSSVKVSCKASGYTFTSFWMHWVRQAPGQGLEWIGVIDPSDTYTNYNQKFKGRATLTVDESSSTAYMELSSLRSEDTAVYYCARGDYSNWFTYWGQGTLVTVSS VL: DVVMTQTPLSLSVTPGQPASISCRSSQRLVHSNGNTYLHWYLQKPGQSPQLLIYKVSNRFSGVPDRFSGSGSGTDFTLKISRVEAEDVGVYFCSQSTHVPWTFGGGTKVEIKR : what is it?
0.14
